# STUDY TARGET: Dickkopf-related protein 1 (Homo sapiens) (UniProt O94907)
# Sequence (O94907 whole entry, looked up): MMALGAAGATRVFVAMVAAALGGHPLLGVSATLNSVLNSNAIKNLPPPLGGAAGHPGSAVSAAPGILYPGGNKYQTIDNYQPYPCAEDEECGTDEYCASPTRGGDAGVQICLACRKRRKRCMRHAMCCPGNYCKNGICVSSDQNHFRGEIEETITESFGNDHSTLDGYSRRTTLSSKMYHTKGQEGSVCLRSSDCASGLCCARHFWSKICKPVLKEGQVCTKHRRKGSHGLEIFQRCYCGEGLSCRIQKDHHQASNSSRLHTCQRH
# TEST DETAILS: DKK1 binders on small-molecule microarrays, primary screen, biochemical, small-molecule microarray, 635 nm fluorescence scan (AID 1106);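 note: score merges emission near 667 nm with signal to noise over three replicate slides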
# RUN CONDITIONS: DKK1 binding, higher = more signal
Given measured composite z-score, output MET if it is greater than or equal to -0.4 and NOT MET if not.

{"MOLECULE": "O=C1O[C@@H](c2ccccc2)[C@@H](c2ccccc2)N2[C@@H](c3ccccc3OCCO)[C@]3(C(=O)Nc4ccccc43)[C@@H](C(=O)NC[C@H](O)c3ccccc3)[C@H]12", "CLASSIFICATION": "NOT MET"}
{"MOLECULE": "C=CCOC(=O)[C@H]1[C@@H]2C(=O)O[C@@H](c3ccccc3)[C@@H](c3ccccc3)N2[C@@H](c2ccc(OCCOC(=O)[C@H]3C[C@H]4C(=O)N[C@@H](Cc5ccccc5)C(=O)N4[C@H]3c3cccc(OCCO)c3)cc2)[C@]12C(=O)Nc1ccc(I)cc12", "CLASSIFICATION": "MET"}

Decide: composite z-score of CC[C@H]1C2=C3C(CC[C@H]4C(OCc5ccc(F)cc5C(F)(F)F)OC[C@](C)([C@@H]34)N(C(=O)OC(C)(C)C)C2)C2COC(=O)OCC21 (stereo partly specified) >= -0.4?
NOT MET

Next molecule up: CN1C(=O)C2C(C1=O)C1C=C(c3ccc(CO)cc3)C2C(c2cccs2)N1Cc1cccc(OC(F)(F)F)c1 (stereo unspecified)
MET

Next molecule up: `C=CC[C@@]1(C(=O)O)N=C(c2ccc(OCCCO)cc2)O[C@@H]1c1ccccc1`
NOT MET

Cited source: PubChem BioAssay
